Biological target: T1, human β-factor XIIa (human), P00748
T1 chain 1: NGPLSCGQR
T1 chain 2: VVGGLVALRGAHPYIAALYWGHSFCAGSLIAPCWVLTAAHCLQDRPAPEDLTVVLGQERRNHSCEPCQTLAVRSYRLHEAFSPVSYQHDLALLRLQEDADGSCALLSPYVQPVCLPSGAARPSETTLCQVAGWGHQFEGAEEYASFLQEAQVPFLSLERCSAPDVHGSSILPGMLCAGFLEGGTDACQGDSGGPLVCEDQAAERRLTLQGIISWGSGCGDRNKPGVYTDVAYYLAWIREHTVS
Assay: competitive protease inhibition assay, Ac-QRFR-pNA substrate, Morrison Ki
assay-endpoint: pKi
pKi here: minus log base 10 of the concentration, concentration in moles per litre.

Lookup: Sample DGGICPRIGRLCRRDSDCPGACICRATRFCGSGY (modifications not checked) [MCoFx1 acyclic] — what was its pKi?
Found: 9.14

Lookup: Sample DGGVCPRVGWRCRRDSDCPGACICYPTKWCGSGS (modifications not checked) [MCoFx4 cyclic] — what was its pKi?
Found: 8.26

Lookup: Sample DGGICPRILVYCRRDSDCPGACICIRRTYCGSGS (modifications not checked) [MCoFx2 acyclic] — what was its pKi?
Found: 7.14

Lookup: Sample DGGVCPKILKKCRRDSDCPGACICRATRFCGSGS (modifications not checked) [cMCoTI-fxL5] — what was its pKi?
Found: 7.18

Lookup: Sample DGGRCPRLLRWCRRDSDCPGACICARGGLCGSGS (modifications not checked) [MCoFx3 acyclic] — what was its pKi?
Found: 6.28

Lookup: Sample DGGVCPRVGWRCRRDSDCPGACICYPTKWCGSGS (modifications not checked) [MCoFx4 acyclic] — what was its pKi?
Found: 7.77

Lookup: Sample DGGRCCGGYLVCRRDSDCPGACICVFKKHCGSGS (modifications not checked) [MCoFx5 acyclic] — what was its pKi?
Found: 6.97

Lookup: Sample DGGICPRIGRLCRRDSDCPGACICRGNGYCGSGS (modifications not checked) [cMCoTI-fxL1] — what was its pKi?
Found: 9.16

---
Lookup: Sample DGGRCPRLLRWCRRDSDCPGACICARGGLCGSGS (modifications not checked) [MCoFx3 cyclic] — what was its pKi?
Found: 7.12

Lookup: Sample DGGICPRILVYCRRDSDCPGACICIRRTYCGSGS (modifications not checked) [MCoFx2 cyclic] — what was its pKi?
Found: 7.92

Lookup: Sample DGGRCCGGYLVCRRDSDCPGACICVFKKHCGSGS (modifications not checked) [MCoFx5 cyclic] — what was its pKi?
Found: 6.68

Lookup: Sample DGGICPRIGRLCRRDSDCPGACICRATRFCGSGY (modifications not checked) [MCoFx1 cyclic] — what was its pKi?
Found: 9.43
